Reported values of viscosity for individual entries
assay: xn = mol fraction of the nth substance listed; conditions: 303.15 K; 100 kPa; Liquid; Cone and plate viscometry; x1 = 0.499
Give just the number in mPa·s; leave the unit off.

| compound | viscosity [mPa·s] |
| --- | --- |
| CCCCCCn1cc[n+](C)c1.N#Cc1ccc[n-]1 [1-hexyl-3-methylimidazolium 2-cyanopyrrolide] + CCCCCCCCCCCCCC[P+](CCCCCC)(CCCCCC)CCCCCC.O=S(=O)([N-]S(=O)(=O)C(F)(F)F)C(F)(F)F | 216 |
| CCCCCCn1cc[n+](C)c1C.O=[N+]([O-])c1cn[n-]c1 [1-hexyl-2,3-dimethylimidazolium 4-nitropyrazolide] + CCCCCCCC[P+](CC)(CC)CC.O=S(=O)([N-]S(=O)(=O)C(F)(F)F)C(F)(F)F | 154 |
| CCCCCCCCCC[P+](CC)(CC)CC.O=[N+]([O-])c1cn[n-]c1 [decyltriethylphosphonium 4-nitropyrazolide] + CC[P+](CC)(CC)COCCOC.O=S(=O)([N-]S(=O)(=O)C(F)(F)F)C(F)(F)F | 79 |
| CC(=O)[O-].CCCCCCCCCCCCCC[P+](CCCCCC)(CCCCCC)CCCCCC [trihexyl(tetradecyl)phosphonium acetate] + CCCCCC[n+]1ccn(C)c1.O=S(=O)([N-]S(=O)(=O)C(F)(F)F)C(F)(F)F | 320 |

Report measured viscosity; entry is CCCCCCn1cc[n+](C)c1.O=[N+]([O-])c1cn[n-]c1 [1-hexyl-3-methylimidazolium 4-nitropyrazolide] + CCCCCCCC[P+](CC)(CC)CC.O=S(=O)([N-]S(=O)(=O)C(F)(F)F)C(F)(F)F
116

Report measured viscosity; entry is CCCCCCCC[P+](CC)(CC)CC.O=[N+]([O-])c1cn[n-]c1 [triethyloctylphosphonium 4-nitropyrazolide] + CCCCCC[n+]1ccn(C)c1.O=S(=O)([N-]S(=O)(=O)C(F)(F)F)C(F)(F)F
124
